# System name: T1, rNPR1-ANP complex (rat, UniProt P01160 124-151 (human entry), limits assumed)
# T1 construct: rNPR1 antigen in the presence of ANP; also called rNPR1 + 100 nM ANP
# T1 sequence: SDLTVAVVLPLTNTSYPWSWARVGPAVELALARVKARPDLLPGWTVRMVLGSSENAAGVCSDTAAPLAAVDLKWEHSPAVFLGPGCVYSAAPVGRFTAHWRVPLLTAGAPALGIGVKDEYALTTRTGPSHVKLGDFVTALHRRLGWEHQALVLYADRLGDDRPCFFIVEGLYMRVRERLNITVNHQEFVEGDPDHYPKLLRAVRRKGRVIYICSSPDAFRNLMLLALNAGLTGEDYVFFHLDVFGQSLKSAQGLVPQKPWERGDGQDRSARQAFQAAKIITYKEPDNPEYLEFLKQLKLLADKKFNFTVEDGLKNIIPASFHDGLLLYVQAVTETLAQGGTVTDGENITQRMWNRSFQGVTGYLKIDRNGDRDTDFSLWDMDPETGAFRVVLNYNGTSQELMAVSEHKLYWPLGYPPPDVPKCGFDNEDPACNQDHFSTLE
# T1 sequence (peptide): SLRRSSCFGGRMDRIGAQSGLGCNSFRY
# Experiment summary: FabCys affinity (Octet per Table 18 comment)
Parameter measured: Kd (nM)
Expressed in nM, but write only the number.

Binder | Val
YY06 (FabCys format) (Fab, V domains shown, Monovalent FabCys) VH: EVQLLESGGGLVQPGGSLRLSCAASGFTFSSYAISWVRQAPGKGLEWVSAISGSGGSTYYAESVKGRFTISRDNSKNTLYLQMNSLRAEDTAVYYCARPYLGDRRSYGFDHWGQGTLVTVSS VL: QSALTQPASVSGSPGQSITISCTGTSSDVGSYNLVSWYQQHPGKAPKLMIYEGSKRPSGVSNRFSGSKSGNTASLTISGLQAEDEADYYCSSYGFHIVVVVFGGGTKLTVL | 1400

Lab note: measured Kd of YY04 (FabCys format) (Fab, V domains shown, Monovalent FabCys) VH: EVQLVESGGGLVKPGGSLRLSCAASGFTFSNYWISWVRQAPGKGLEWVGRIKSKTYGGTTDYAEPVKGRFTISRDDSKNTLYLQMNSLKTEDTAVYYCAREKYSIRARGHGDYGFDVWGQGTLVTVSS VL: DIQMTQSPSSLSASVGDRVTITCRASQGISNYLAWYQQKPGKVPKLLIYAASTLQSGVPSRFSGSGSGTDFTLTISSLQPEDVATYYCQQGYHAPFTFGQGTKVEIK was 1

In plain terms, YY05 (FabCys format) (Fab, V domains shown, Monovalent FabCys) VH: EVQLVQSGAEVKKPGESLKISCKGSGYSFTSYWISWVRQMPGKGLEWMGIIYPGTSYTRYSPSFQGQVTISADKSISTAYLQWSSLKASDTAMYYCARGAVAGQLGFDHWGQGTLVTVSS VL: QSVLTQPPSVSGAPGQRVTISCTGSSSNIGAGYDVHWYQQLPGTAPKLLIYGNSNRPSGVPDRFSGSKSGTSASLAITGLQAEDEADYYCQSYYTSSHGPVFGGGTKLTVL has a documented Kd of 16000

So, YY01 (FabCys format) (Fab, V domains shown, Monovalent FabCys) VH: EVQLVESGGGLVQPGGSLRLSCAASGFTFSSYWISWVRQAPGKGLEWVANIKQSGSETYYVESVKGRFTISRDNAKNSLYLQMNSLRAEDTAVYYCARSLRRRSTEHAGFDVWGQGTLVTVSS VL: DIQMTQSPSSLSASVGDRVTITCRASQGISNYLAWYQQKPGKVPKLLIYAASTLQSGVPSRFSGSGSGTDFTLTISSLQPEDVATYYCQQADKFPYTFGQGTKVEIK ? Its Kd was 14
